- System: Human immunodeficiency virus 1
- assay-notes: Antiviral activity against multidrug resistant Human immunodeficiency virus 1 MDRC4
- Format: functional, organism-based
Kindly state EC50 for each of the entries shown.
Lab book: enter the figure in nM, no units written.

EC50 for `COc1ccc(S(=O)(=O)N(CC(C)C)C[C@@H](O)[C@H](Cc2ccccc2)NC(=O)[C@@H]2CN(c3cccc(S(C)(=O)=O)c3)C(=O)O2)cc1` is 18.6

Note to self: EC50 recorded for `CC(C)CN(C[C@@H](O)[C@H](Cc1ccccc1)NC(=O)[C@@H]1CN(c2cccc([N+](=O)[O-])c2)C(=O)O1)S(=O)(=O)c1ccc2ncsc2c1` was 37.7

The molecule listed as `CC(C)CN(C[C@@H](O)[C@H](Cc1ccccc1)NC(=O)[C@@H]1CN(c2cccc(C(F)(F)F)c2)C(=O)O1)S(=O)(=O)c1ccc2ncsc2c1` has a reported EC50 of 53.4
